- Test system: SF-295
- procedure_details: NCI tumour cell line growth inhibition, 48 h
Activity calls are given as the source filed them. Cut-off read from the data, not from the text of the source: active = GI50 up to about 1.1 µM and inactive = higher.
Just give me one of these, please: class 1 (active), class 0 (inactive)

Take a look at these entries with their results.
**Q:** Hi, sorry to bother you, what did the test record for `CCOC(=O)N1CCc2cc(OC)c(OC)c3c2c1cc1cc(OC)c(OC)cc13` ?
**A:** class 1

**Q:** Another compound to check: Cc1ccc([S+]([O-])/C=C(\NC(=O)OCc2ccccc2)C(F)(F)F)cc1 (stereo not drawn)
**A:** class 0

**Q:** Another compound to check: CC(=O)C(N1CCCCC1)C(O)(C(F)(F)F)C(F)(F)F (stereo not drawn)
**A:** class 0

New cases:
**Q:** Hi, sorry to bother you, what did the test record for `COc1cc(-c2cc(=O)c3c(OC)c(OC)c(OC)cc3o2)c(OC)c(OC)c1OC` ?
**A:** class 0

**Q:** Another compound to check: `Oc1nc(-c2ccccc2)cc(-c2ccccc2O)n1`
**A:** class 0

**Q:** Another compound to check: `Brc1ccc2nc(-c3cccs3)nc(N3CCN(c4ccccc4)CC3)c2c1`
**A:** class 0

**Q:** Another compound to check: `CNc1nnc(CNc2ccc(-c3nnc(NC)n3N)cc2)n1N`
**A:** class 0

**Q:** Another compound to check: `Cc1cccc(/N=N/c2ccc(/N=N/c3c(O)ccc4ccccc34)cc2C)c1`
**A:** class 0

**Q:** Another compound to check: CCCN(CCC)c1c([N+](=O)[O-])cc(S(N)(=O)=O)cc1[N+](=O)[O-] [ORYZALIN]
**A:** class 0

**Q:** Another compound to check: O=C(Nc1ccccc1[N+](=O)[O-])C(=O)C(C(=O)c1ccccc1-c1ccccc1)C1OC(=O)c2ccccc21 (stereo not drawn)
**A:** class 0

**Q:** Another compound to check: `C/C(=N\O)c1ccc2ccc3ccccc3c2c1`
**A:** class 0

**Q:** Another compound to check: N#Cc1c(-c2ccccc2)c(C#N)c(=S)n(C2OC(CO)C(O)C(O)C2O)c1O (stereo not drawn)
**A:** class 0

**Q:** Another compound to check: `CCc1cccc(C(C)C)c1NC(=O)CCl`
**A:** class 0

**Q:** Another compound to check: `Cc1nc(Nc2nc3ccccc3[nH]2)[nH]c(=O)c1CCO`
**A:** class 0

**Q:** Another compound to check: Oc1c(C(O)c2ccccn2)ccc2ccccc12 (stereo not drawn)
**A:** class 0

**Q:** Another compound to check: CN1CC[C@]23c4c5ccc(O)c4OC2c2[nH]ncc2C[C@H]3[C@H]1C5 (stereo partly drawn)
**A:** class 0

**Q:** Another compound to check: `Cc1ccc(-c2n[nH]c(=O)n2N2C(=O)C=CC2=O)cc1`
**A:** class 0

**Q:** Another compound to check: `FC(F)(F)c1cc(Cl)cnc1N/N=C(/c1ccccc1)c1ccccn1`
**A:** class 0

**Q:** Another compound to check: `N=C(N)N1CCC(N2CCOCC2)CC1`
**A:** class 0

**Q:** Another compound to check: `Cc1cc2c(=O)cc(-c3ccc(Cl)c(Cl)c3)oc2c(C(=O)O)c1C`
**A:** class 0

**Q:** Another compound to check: Clc1ccc(C2Nc3ccccc3C3=NCCN32)cc1 (stereo not drawn)
**A:** class 0

**Q:** Another compound to check: `CCC1(O)C=CC(=O)C=C1`
**A:** class 0

**Q:** Another compound to check: c1ccc(C[N+]23C(CC[C@H]2c2ccccc2)CC[C@H]3c2ccccc2)cc1 (stereo partly drawn)
**A:** class 0

**Q:** Another compound to check: Cn1c2c3ccccc3nc-2c(O)c2ccccc21 [HYDROXYCRYPTOLEPINE]
**A:** class 0

**Q:** Another compound to check: `COc1ccc(OC)c(/C=N/N=C(\N)NO)c1`
**A:** class 0

**Q:** Another compound to check: `Cc1cc2occ(-c3ccc(Cl)cc3)c2c(=O)o1`
**A:** class 0

**Q:** Another compound to check: `O=C(c1ccccc1)c1ccc(-n2c3ccccc3c3ccc4c(c32)C(=O)C=CC4=O)cc1`
**A:** class 0

**Q:** Another compound to check: `CCCN(CCC)c1c([N+](=O)[O-])cc(C(=O)N(C)C)cc1[N+](=O)[O-]`
**A:** class 0

**Q:** Another compound to check: CCOC(=O)[C@@H]1ON2O[C@@H](OC3CCCC3(c3ccccc3)c3ccccc3)C[C@H]3OC(=O)[C@@H]1C32 (stereo partly drawn)
**A:** class 0

====

- Tested on: MOLT-4
- procedure_details: NCI tumour cell line growth inhibition, 48 h
Activity calls are given as the source filed them. Rule as the data show it: active = GI50 up to about 1.1 µM and inactive = higher.
quantity_measured: GI50

**Q:** Any idea what its GI50 is? The compound is `Nc1c(Cl)ncnc1NCC1(CO)CCC1`
**A:** > 100 µM (inactive)

**Q:** Another compound to check: CCCN(CCCC(NC(C)=O)C(=O)NCc1ccccc1)C(=O)N(CCCl)N=O (stereo unspecified)
**A:** 2.6 µM (inactive)

**Q:** Another compound to check: `CCN(CC)N1C(=O)[N-][N+](CC)(CC)C1=O`
**A:** > 100 µM (inactive)

**Q:** Another compound to check: `Oc1ccc2occ3c2c1CCC3`
**A:** > 100 µM (inactive)

New cases:
**Q:** Any idea what its GI50 is? The compound is `CN(C)CCCN1c2ccc3ccccc3c2Sc2cccc(Cl)c21`
**A:** 2.14 µM (inactive)

**Q:** Another compound to check: c1ccc(C[N+]23C(CC[C@H]2c2ccccc2)CC[C@H]3c2ccccc2)cc1 (stereo partly specified)
**A:** 27.9 µM (inactive)

====

- Test system: SF-539
- procedure_details: NCI tumour cell line growth inhibition, 48 h
Activity calls are given as the source filed them. Rule as the data show it: active = GI50 up to about 1.1 µM and inactive = higher.
Just give me one of these, please: active, inactive

Take a look at these entries with their results.
**Q:** Hi, sorry to bother you, what did the test record for `COc1c(O)c(O)c2c(c1O)C(=O)c1cc(C)cc(O)c1C2=O` ?
**A:** inactive

**Q:** Another compound to check: `CC(=N\N)/C(C)=N/N=C(C)/C(C)=N/N=C(C)/C(C)=N/N=C(C)/C(C)=N/N`
**A:** inactive

**Q:** Another compound to check: CCC(C)c1c(Cl)nc(Cl)nc1Cl (stereo not given)
**A:** inactive

**Q:** Another compound to check: `Cc1ccc(S(=O)(=O)Oc2nc3ccccc3nc2N(S(=O)(=O)c2ccc(C)cc2)S(=O)(=O)c2ccc(C)cc2)cc1`
**A:** inactive

**Q:** Another compound to check: CC(NC(=O)/C(C#N)=C/c1ccc2[nH]ccc2c1)c1ccccc1 (stereo not given)
**A:** inactive

New cases:
**Q:** Hi, sorry to bother you, what did the test record for `CCCN(CCC)c1c([N+](=O)[O-])cc(S(N)(=O)=O)cc1[N+](=O)[O-]` ?
**A:** inactive

**Q:** Another compound to check: `FC(F)(F)c1cc(Cl)cnc1N/N=C(/c1ccccc1)c1ccccn1`
**A:** inactive

**Q:** Another compound to check: C[C@]12CCC(=O)C(O)=C1CC[C@@H]1C2CC[C@]2(C)NC(=O)CCC12 (stereo not given in full)
**A:** inactive

**Q:** Another compound to check: `Cc1ccc([N+](=O)[O-])c2c(NCCC[N+](C)(C)[O-])c3ccccc3nc12`
**A:** inactive

**Q:** Another compound to check: `Brc1ccc2nc(-c3cccs3)nc(N3CCN(c4ccccc4)CC3)c2c1`
**A:** inactive

**Q:** Another compound to check: `C=Nc1ccc([N+](=O)[O-])cc1`
**A:** inactive

**Q:** Another compound to check: `COc1ccc(OC)c(/C=N/N=C(\N)NO)c1`
**A:** inactive

**Q:** Another compound to check: CN(C)CC1CCCc2ccccc2C1=O (stereo not given)
**A:** inactive

**Q:** Another compound to check: `C#C[C@]1(O)CC[C@H]2[C@@H]3CCC4=C/C(=N\OCCN5CCCC5)CC[C@]4(C)[C@H]3CC[C@@]21C`
**A:** inactive

**Q:** Another compound to check: `CN(C)CCOc1ccc(-c2c(Oc3ccccc3)c(=O)oc3ccccc23)cc1`
**A:** inactive

**Q:** Another compound to check: `O=[N+]([O-])/C(C(Cl)=C(Cl)Cl)=C(/Nc1ccccc1)Sc1ccccc1`
**A:** inactive

**Q:** Another compound to check: `C/C=C1\NC(=O)[C@H]2CSSCCC=C[C@H](CC(=O)N[C@H](C(C)C)C(=O)N2)OC(=O)[C@H](C(C)C)NC1=O`
**A:** active

**Q:** Another compound to check: `NC(=O)C1CCN(Cc2c(Cl)c(Cl)c(CN3CCC(C(N)=O)CC3)c(Cl)c2Cl)CC1`
**A:** inactive

**Q:** Another compound to check: Cc1ccccc1NC(=O)C(=O)C(C(=O)c1ccccc1F)C1OC(=O)c2ccccc21 (stereo not given)
**A:** inactive

**Q:** Another compound to check: `N#C/N=C(/NCc1ccccc1)N(Cc1ccccc1)Cc1ccccc1`
**A:** inactive

**Q:** Another compound to check: Cn1c2c3ccccc3nc-2c(O)c2ccccc21 [HYDROXYCRYPTOLEPINE]
**A:** inactive
